MIC for assorted compounds
tested on: Enterococcus faecalis; test: Antimicrobial activity against Enterococcus faecalis ATCC 19433 assessed as reduction in microbial growth measured after 20 hrs by CLSI based broth microdilution method; type: functional
The answer is to be given in mg/L; state only the numeric part.

Solved cases below.
compound="OC(CNCCOc1ccccc1C(F)(F)F)COc1ccc(C(F)(F)F)cc1 (centres undefined)" measured_target="Enterococcus faecalis" endpoint_result=16
compound="OC(CNCCNc1ccc(C(F)(F)F)cn1)COCc1ccccc1C(F)(F)F (centres undefined)" measured_target="Enterococcus faecalis" endpoint_result=128
compound="O=[N+]([O-])c1ccc(OCC(O)CNCCNc2nccc(C(F)(F)F)n2)cc1 (centres undefined)" measured_target="Enterococcus faecalis" endpoint_result=256
compound="O=[N+]([O-])c1ccc(NCCNCC(O)COCc2ccc(C(F)(F)F)cc2)nc1 (centres undefined)" measured_target="Enterococcus faecalis" endpoint_result=128
compound="OC(CNCCNc1ccccc1C(F)(F)F)COCc1ccc(C(F)(F)F)cc1 (centres undefined)" measured_target="Enterococcus faecalis" endpoint_result=64

Answer with the recorded MIC of O=[N+]([O-])c1ccc(OCC(O)CNCCNc2ccccc2C(F)(F)F)cc1 (centres undefined) only. 128

Answer with the recorded MIC of OC(CNCCNc1nccc(C(F)(F)F)n1)COc1ccc(C(F)(F)F)cc1 (centres undefined) only. 64

Answer with the recorded MIC of OC(CNCCNc1ccccc1C(F)(F)F)CSc1ccc(C(F)(F)F)cc1 (centres undefined) only. 8

* * *

MIC for assorted compounds
system: Staphylococcus aureus; test: Antimicrobial activity against Staphylococcus aureus ATCC 29213 assessed as reduction in microbial growth measured after 20 hrs by CLSI based broth microdilution method; assay type: functional
The answer is to be given in µg/mL; state only the numeric part.

compound="O=[N+]([O-])c1ccccc1NCCNCC(O)COc1ccc(C(F)(F)F)cc1 (stereo not given)" property_measured=MIC endpoint_result=128
compound="OC(CNCCNc1ccc(C(F)(F)F)cn1)CSCc1ccc(C(F)(F)F)cc1 (stereo not given)" property_measured=MIC endpoint_result=8

Answer with the recorded MIC of OC(CNCCNc1nccc(C(F)(F)F)n1)COc1ccc(F)cc1 (stereo not given) only. 256

Answer with the recorded MIC of O=S(=O)(NCCNCC(O)COc1ccc(C(F)(F)F)cc1)c1ccccc1C(F)(F)F (stereo not given) only. 64

Answer with the recorded MIC of OC(CNCCNc1ccc(C(F)(F)F)cn1)COCc1ccc(C(F)(F)F)cc1 (stereo not given) only. 32

Answer with the recorded MIC of OC(CNCCNc1ccccc1C(F)(F)F)COc1cccc(C(F)(F)F)c1 (stereo not given) only. 32

Answer with the recorded MIC of OC(CNCCOc1ccccc1C(F)(F)F)COc1ccc(C(F)(F)F)cc1 (stereo not given) only. 16

Answer with the recorded MIC of OC(CNCCNc1nccc(C(F)(F)F)n1)COc1ccc(F)c(F)c1 (stereo not given) only. 256

Answer with the recorded MIC of OC(CNCCNc1ccccc1C(F)(F)F)COCc1ccccc1C(F)(F)F (stereo not given) only. 128

* * *

system: Acinetobacter baumannii; assay: Antimicrobial activity against Acinetobacter baumannii ATCC 19606 assessed as reduction in microbial growth measured after 20 hrs by CLSI based broth microdilution method; assay type: functional
Property measured: MIC

Solved cases below.
molecule="OC(CNCCNc1ccccc1C(F)(F)F)COc1cccc(C(F)(F)F)c1 (stereo not given)" property_measured=MIC endpoint_result="32 mg/L"
molecule="OC(CNCCNc1ccc(C(F)(F)F)cn1)COCc1ccc(C(F)(F)F)cc1 (stereo not given)" property_measured=MIC endpoint_result="64 mg/L"
molecule="O=[N+]([O-])c1ccc(OCC(O)CNCCNc2ncccc2C(F)(F)F)cc1 (stereo not given)" property_measured=MIC endpoint_result="> 256 mg/L"
molecule="O=S(=O)(NCCNCC(O)COc1ccc(C(F)(F)F)cc1)c1ccccc1C(F)(F)F (stereo not given)" property_measured=MIC endpoint_result="64 mg/L"
molecule="OC(CNCCNc1nccc(C(F)(F)F)n1)COc1ccc(F)c(F)c1 (stereo not given)" property_measured=MIC endpoint_result="256 mg/L"
molecule="OC(CNCCNc1ccc(C(F)(F)F)cn1)COc1ccc(C(F)(F)F)cc1 (stereo not given)" property_measured=MIC endpoint_result="64 mg/L"

Answer with the recorded MIC of OC(CNCCNc1cccc(C(F)(F)F)c1)COc1ccc(C(F)(F)F)cc1 (stereo not given) only. > 256 mg/L

Answer with the recorded MIC of OC(CNCCNc1ccc(C(F)(F)F)cc1)COc1ccc(C(F)(F)F)cc1 (stereo not given) only. 256 mg/L

Answer with the recorded MIC of OC(CNCCNc1ccc(C(F)(F)F)cn1)COCc1cccc(C(F)(F)F)c1 (stereo not given) only. 128 mg/L

Answer with the recorded MIC of O=[N+]([O-])c1ccc(OCC(O)CNCCNc2ncc(C(F)(F)F)cn2)cc1 (stereo not given) only. > 256 mg/L

* * *

MIC for assorted compounds
system: Streptococcus pneumoniae; assay: Antimicrobial activity against Streptococcus pneumoniae TCH8431 (HM-145) assessed as reduction in microbial growth measured after 20 hrs by CLSI based broth microdilution method; type: functional
The answer is to be given in µg/mL; state only the numeric part.

Solved cases below.
compound="OC(CNCCNc1ccccc1C(F)(F)F)COc1ccc(C(F)(F)F)cc1 (centres undefined)" units_symbol=µg/mL endpoint_result=4
compound="OC(CNCCSc1ccccc1C(F)(F)F)CSc1ccc(C(F)(F)F)cc1 (centres undefined)" units_symbol=µg/mL endpoint_result=4
compound="OC(CNCCOc1ccccc1C(F)(F)F)COc1ccc(C(F)(F)F)cc1 (centres undefined)" units_symbol=µg/mL endpoint_result=8

Answer with the recorded MIC of OC(CNCCNc1ccccc1C(F)(F)F)CSc1ccc(C(F)(F)F)cc1 (centres undefined) only. 2

* * *

assay: Inhibition of Bacillus subtilis LgBiT-fused NusG/C-terminal SmBit fused […] CH protein-protein interaction using […] incubated for 20 mins by luminescence based analysis
Property measured: pIC50
In plain terms, pIC50 is the concentration in mol/L turned into minus its base-10 logarithm.

Answer with the recorded pIC50 of H-EGRVATSLREHIKLHN-OH only. 3.71

* * *

experiment: Inhibition of Bacillus subtilis LgBiT-fused NusG/C-terminal SmBit fused […] CH protein-protein interaction using […] incubated for 20 mins by luminescence based analysis
Property measured: IC50

Answer with the recorded IC50 of OC(CNCCNc1ccccc1C(F)(F)F)CSc1ccc(C(F)(F)F)cc1 (stereo unspecified) only. 142 µM

* * *

test system: Enterococcus faecalis; assay: Antimicrobial activity against Enterococcus faecalis ATCC 19433 assessed as reduction in microbial growth measured after 20 hrs by CLSI based broth microdilution method; assay type: functional
MIC for assorted compounds
The answer is to be given in µg/mL; state only the numeric part.

Solved cases below.
compound="OC(CNCCNc1ccccc1C(F)(F)F)COc1cccc(C(F)(F)F)c1 (stereo not given)" property_measured=MIC endpoint_result=16
compound="OC(CNCCNc1ccc(C(F)(F)F)cn1)COCc1ccc(C(F)(F)F)cc1 (stereo not given)" property_measured=MIC endpoint_result=32
compound="OC(CNCCNc1ccccc1C(F)(F)F)COc1ccccc1C(F)(F)F (stereo not given)" property_measured=MIC endpoint_result=32
compound="O=S(=O)(NCCNCC(O)COc1ccc(C(F)(F)F)cc1)c1ccccc1C(F)(F)F (stereo not given)" property_measured=MIC endpoint_result=64
compound="OC(CNCCSc1ccccc1C(F)(F)F)CSc1ccc(C(F)(F)F)cc1 (stereo not given)" property_measured=MIC endpoint_result=8
compound="OC(CNCCNc1ccc(C(F)(F)F)cn1)CSCc1ccc(C(F)(F)F)cc1 (stereo not given)" property_measured=MIC endpoint_result=32
compound="OC(CNCCNc1ccc(C(F)(F)F)cn1)COCc1ccccc1 (stereo not given)" property_measured=MIC endpoint_result=256
compound="OC(CNCCNc1ccc(C(F)(F)F)cn1)COCc1cccc(C(F)(F)F)c1 (stereo not given)" property_measured=MIC endpoint_result=64

Moving on to the next compound.
Answer with the recorded MIC of O=[N+]([O-])c1ccc(OCC(O)CNCCNc2ccc(C(F)(F)F)cn2)cc1 (stereo not given) only. 128

* * *

MIC for assorted compounds
test system: Staphylococcus aureus; test: Antimicrobial activity against Staphylococcus aureus ATCC 29213 assessed as reduction in microbial growth measured after 20 hrs by CLSI based broth microdilution method; type: functional
The answer is to be given in µg/mL; state only the numeric part.

Solved cases below.
compound="OC(CNCCSc1ccccc1C(F)(F)F)COc1ccc(C(F)(F)F)cc1 (stereo not given)" units_symbol=µg/mL endpoint_result=8
compound="OC(CNCCNc1ccccc1C(F)(F)F)CSc1ccc(C(F)(F)F)cc1 (stereo not given)" units_symbol=µg/mL endpoint_result=4
compound="O=[N+]([O-])c1ccc(OCC(O)CNCCNc2cccc(C(F)(F)F)n2)cc1 (stereo not given)" units_symbol=µg/mL endpoint_result=64

Answer with the recorded MIC of N#Cc1ccccc1NCCNCC(O)COc1ccc(C(F)(F)F)cc1 (stereo not given) only. 128
